# experimental.system: T1, full length human tau protein (2N4R, isoform Tau-F, 441 amino acids) (human, UniProt P10636 1-758)
# T1 construct: also called hT40; htau40
# T1 sequence (P10636 other isoform, or with tags, fused parts or gaps limits assumed): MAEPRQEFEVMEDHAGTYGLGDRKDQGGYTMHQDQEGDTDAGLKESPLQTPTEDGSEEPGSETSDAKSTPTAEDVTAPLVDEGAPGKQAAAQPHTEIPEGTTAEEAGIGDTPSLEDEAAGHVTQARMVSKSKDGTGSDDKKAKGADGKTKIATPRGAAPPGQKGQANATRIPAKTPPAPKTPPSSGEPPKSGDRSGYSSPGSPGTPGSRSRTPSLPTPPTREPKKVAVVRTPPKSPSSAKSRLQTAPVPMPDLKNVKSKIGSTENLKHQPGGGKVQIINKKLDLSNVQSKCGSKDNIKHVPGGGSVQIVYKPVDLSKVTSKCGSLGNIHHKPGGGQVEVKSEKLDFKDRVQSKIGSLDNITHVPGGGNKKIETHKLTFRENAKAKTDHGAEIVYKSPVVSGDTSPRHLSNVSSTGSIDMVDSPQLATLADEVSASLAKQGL
# procedure.text: sandwich ELISA, S1D12 mAb capture, hT40 titrated, detection scAb, chemiluminescent
observation.type: LoD (ng/ml) chemiluminescence detection (ng/mL)
Return type: number; implicit unit ng/mL.

{"columns": ["binder", "LoD (ng/ml) chemiluminescence detection, ng/mL"],
 "data": [
  ["CC7 scAb (scFv, not shown: human C kappa domain and hexa-His tag of the scAb format) scFv: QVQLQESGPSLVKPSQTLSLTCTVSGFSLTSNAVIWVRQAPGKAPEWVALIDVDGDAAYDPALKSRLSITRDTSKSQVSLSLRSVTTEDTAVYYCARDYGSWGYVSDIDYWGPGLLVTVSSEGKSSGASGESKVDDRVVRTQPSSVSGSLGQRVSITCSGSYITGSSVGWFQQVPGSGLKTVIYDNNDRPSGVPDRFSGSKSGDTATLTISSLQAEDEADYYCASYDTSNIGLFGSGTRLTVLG", 3.33],
  ["S1G10 scAb (scFv, not shown: human C kappa domain and hexa-His tag of the scAb format) scFv: QVQLQESGPSLVKPSQTLSLTCTVSGFSLTSNSVGWVRQAPGKAPEWVAGIDTDGEEGYNPALNSRLSITRDTSKSQVSLSLSSVTSEDTAVYYCGRSYRADGLAYGYVQAIDYWGPGLLVTVSSEGKSSGASGESKVDDQAVLTQPSSMSGSLGQRVSITCSGSFIGISSVGWFQQLPGSGLRTIIVASDGRPSGVPDRFSMSKSGNTATLTISSLQAEDEADYFCGSSDRTQYTGVFGSGTRLTVLG", 0.12],
  ["412E10 scAb (scFv, not shown: human C kappa domain and hexa-His tag of the scAb format) scFv: QVQLQESGPSLVKPSQTLSLTCTVSGFSVISDSVAWVRQAPGKVPEWLGASGSSGNKYYNPALKSRLSITRDTSKSQVSLSLSSVTTEDTAVYYCARGIIAGVDVWGRGLLVTVSSEGKSSGASGESKVDDQAVLTQPSSVSGSLGQRVSITCSGSSSNVGYGNYVGWYQQVPGSAPKLLIYGTAIRASGVPDRFSGSRSGDTATLTITSLQAEDEADYYCASYQSNYAFFGSGTRLTVLG", 0.37]
]}

Problem: I would be grateful if you could share the reported LoD (ng/ml) chemiluminescence detection for CA4 scAb (scFv, not shown: human C kappa domain and hexa-His tag of the scAb format) scFv: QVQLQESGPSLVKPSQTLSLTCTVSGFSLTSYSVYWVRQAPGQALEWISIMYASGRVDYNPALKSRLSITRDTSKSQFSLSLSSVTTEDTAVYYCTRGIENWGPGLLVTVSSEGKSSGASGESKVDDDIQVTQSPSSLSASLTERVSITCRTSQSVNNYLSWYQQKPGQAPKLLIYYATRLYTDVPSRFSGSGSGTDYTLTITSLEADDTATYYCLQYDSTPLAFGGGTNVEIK .
Solution: 0.37

Problem: I would be grateful if you could share the reported LoD (ng/ml) chemiluminescence detection for CB7 scAb (scFv, not shown: human C kappa domain and hexa-His tag of the scAb format) scFv: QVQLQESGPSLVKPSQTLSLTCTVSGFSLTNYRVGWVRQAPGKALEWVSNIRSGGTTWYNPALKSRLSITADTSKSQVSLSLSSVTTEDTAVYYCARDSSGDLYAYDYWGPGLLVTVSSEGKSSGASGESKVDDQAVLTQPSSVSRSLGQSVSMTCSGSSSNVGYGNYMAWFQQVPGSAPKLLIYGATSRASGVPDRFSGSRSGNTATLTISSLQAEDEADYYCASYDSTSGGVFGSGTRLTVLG .
Solution: 3.33
